# System: SEM cells
# Protocol: cell viability relative to DMSO control; higher = less cytotoxic
# Test Context: RPMI 5 mM glucose + 10% dialyzed FBS; 48 h; 5.12 µM
Quick reference: cell viability of the listed items.

Compound | Endpoint Unit | cell viability
c1ccc(CCCN2CCN(CCOC(c3ccccc3)c3ccccc3)CC2)cc1 | % | 92.5
Cc1onc(-c2ccccc2Cl)c1C(=O)N[C@@H]1C(=O)N2[C@@H]1SC(C)(C)[C@@H]2C(=O)[O-] | % | 99.9
Clc1ccc(-c2nc3sccn3c2/C=N/OCc2ccc(Cl)c(Cl)c2)cc1 | % | 113
CN[C@H]1CCC2=CC(=C(OC)C(=C2C/3=C/C=C(OC)\C(=O)/C=C13)OC)OC | % | 9.12
CN(C)[S+](=O)([O-])c1ccc2c(c1)C(=Cc1cc3c([nH]1)CCCC3)C(=O)N2 | % | 113
CN[C@@H]1[C@@H](O)[C@@H](O[C@@H]2[C@@H](O)[C@H](O[C@H]3O[C@H](CN)[C@@H](O)[C@H](O)[C@H]3O)[C@@H](N)C[C@H]2NC(=O)[C@@H](O)CN)OC[C@]1(C)O | % | 127
O=C1[C@H](Cc2ccc(O)cc2)N2C(=O)CCN(C(=O)NCc3ccccc3)[C@H]2CN1Cc1cccc2ccccc12 | % | 73.3
CC(C)N[C@@H]1CCn2c(=O)[nH]c3cccc(c32)[C@H]1O | % | 101
OC[C@H]1O[C@H]([C@H](O)[C@@H]1O)N2\C=C/C(=O)NC2=O | % | 105
CCc1ccc(CCOc2ccc(CC3SC(=O)NC3=O)cc2)nc1 (configuration not stated) | % | 122
C[C@](O)(CS(=O)(=O)c1ccc(F)cc1)C(=O)Nc1ccc(C#N)c(C(F)(F)F)c1 | % | 96.1
CC[C@]12CC[C@H]3[C@@H](CCC/4=C/C(=O)CC[C@H]34)[C@@H]1\C=C/[C@@]2(O)C#C | % | 115
N[S+]([O-])(=O)C1=CC=C(NC/2=C/C(=O)C3=CC=CC=C3C2=O)C=C1 | % | 71.3
NC\1=N\C(=O)N(\C=C1)[C@@H]2O[C@H](CO)[C@@H](O)[C@@H]2O | % | 3.6
C[C@@]12C(=O)OC(=O)[C@@]1(C)C1CCC2O1 | % | 58.2
COc1ccc([C@@H]2CC(=O)c3c(O)cc(O[C@@H]4O[C@H](CO[C@@H]5O[C@@H](C)[C@H](O)[C@@H](O)[C@H]5O)[C@@H](O)[C@H](O)[C@H]4O)cc3O2)cc1O | % | 119
CCN1CCN(CC1)CC(=O)NC2=CC=C(C3=C2C4=C(S3)C=CC=C4)C5=C6O\C(=C/C(=O)C6=CC=C5)N7CCOCC7 | % | 24
